- test-name: Toxicity liver stage against HepG2, at 10uM
- Assay type: cell-based
- Design: test concentration 10 uM, cell line HepG2-A16-CD81EGFP
- measurement-parameters: human, HepG2-A16-CD81EGFP cells; read-out: INHIBITION
property-label: cytotoxicity at 10 µM (%)
Give just the number in %; leave the unit off.

O=C(COC(=O)Cc1cccs1)NCc1cccc(NC(=O)C2CC2)c1
-8.08

Enquiry: cytotoxicity at 10 µM lookup needed for CC(C)n1ccnc1C1CCCN(Cc2ccc(F)c(F)c2)C1 (centres undefined) , thanks.
Return: 3.89

Enquiry: State the recorded cytotoxicity at 10 µM for this entry: CCc1nnc(Nc2cccc(C3CCN(C(=O)CN(C)C)CC3)n2)s1
Return: -39.1

Enquiry: Endpoint output: cytotoxicity at 10 µM of CNC(=O)c1cc2c(nc1NCC(C)C)CCN(C)CC2 . Value?
Return: -153
